# MEASUREMENT TARGET: Sphingosine 1-phosphate receptor 1 (Homo sapiens, UniProt P21453)
# Sequence (P21453 whole entry): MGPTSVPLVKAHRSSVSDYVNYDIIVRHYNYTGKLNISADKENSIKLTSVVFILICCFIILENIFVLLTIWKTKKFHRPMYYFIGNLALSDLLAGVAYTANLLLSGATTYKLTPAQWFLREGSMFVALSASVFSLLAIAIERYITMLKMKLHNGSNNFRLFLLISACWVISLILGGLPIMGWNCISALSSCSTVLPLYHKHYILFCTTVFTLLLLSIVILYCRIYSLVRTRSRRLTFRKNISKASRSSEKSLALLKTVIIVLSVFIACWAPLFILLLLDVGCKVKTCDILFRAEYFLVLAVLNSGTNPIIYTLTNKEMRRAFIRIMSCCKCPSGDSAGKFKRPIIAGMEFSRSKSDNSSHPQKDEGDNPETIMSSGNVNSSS
# ASSAY INFO: potentiators of S1P1 agonist response, dose response, cell-based, potentiator mode, 60K MLSMR set (AID 466)
With a cut-off of 3 µM, any EC50 strictly below it is called T; any EC50 meeting it or above is called F.

INSERT INTO results (molecule, class_name) VALUES
  ('CCN(C(=O)c1ccc(C(C)(C)C)cc1)c1nnc(Cn2nnc3ccccc32)s1 [MLS000072751]', 'T'),
  ('O=S(=O)(CCSc1ccccn1)c1nc2ccccc2s1', 'F');

stdin: Please check: EC50 for CCOC(=O)c1ccc2c(c1)C(=O)N(C1CCCCC1)C2=O , strictly under 3 µM or not?
stdout: F

stdin: # strict comparison: is reported EC50 < 3 µM? input = CCOc1ccc(-c2nc(-c3ccncc3)no2)cc1OCC
stdout: T

stdin: Here's an entry: COc1ccc(CCNc2c(C)c(C)nc3ncnn23)cc1 . Is its EC50 below 3 µM?
stdout: F

stdin: Dear colleague, could you confirm whether EC50 of COc1ccccc1OCCCCCc1c(C)n[nH]c1C [SMR000103101] falls below 3 µM? Thanks.
stdout: F

stdin: Determine whether this molecule shows EC50 lower than 3 µM (ties excluded): O=C(Nc1ccc(O)cc1)c1cc2n(n1)C(C(F)(F)F)CC(c1ccco1)N2 (centres undefined)
stdout: F

stdin: Dear reviewer, please state whether COc1ccccc1-c1cc(C(=O)Nc2ccccc2SC)no1 has EC50 strictly beneath 3 µM.
stdout: F

stdin: For CCC(NCc1ccc2c(c1)OCO2)=C1C(=O)NC(=O)N(C2CCCCC2)C1=O , is the recorded EC50 below the cut-off of 3 µM?
stdout: F

stdin: # strict comparison: is reported EC50 < 3 µM? input = COc1ccc(-c2cn3c(C)c(C(=O)Nc4ccncc4)sc3n2)cc1
stdout: F

stdin: Input Cc1cc2nc(-c3ccc(NC(=O)C(C)C)cc3)oc2cc1C [MLS000109473] ; condition: EC50 strictly below 3 µM. Does it hold?
stdout: T

stdin: Consider the molecule CN=C(NC#N)SCC(=O)c1ccc(Cl)cc1Cl . Is its EC50 strictly less than 3 µM?
stdout: F

stdin: Confirm or reject: EC50 of COc1ccc(NC(=O)c2cnn3c(C(F)(F)F)cc(-c4ccco4)nc23)cc1OC [MLS000109325] lies strictly below 3 µM
stdout: F

stdin: Is EC50 of COc1ccc(-n2nnnc2S(=O)(=O)CC(=O)N2CCCCC2)cc1 strictly below 3 µM?
stdout: F

stdin: Say whether its EC50 is strictly beneath 3 µM. Entry: O=C(Oc1cccc(C(=O)N2CCOCC2)c1)c1ccc(Br)cc1
stdout: F

stdin: Strictly below 3 µM in EC50? CC(C)OC(=O)CSc1nc(N)c(C#N)c(-c2cccs2)c1C#N
stdout: F

stdin: Answer whether the molecule CCOc1ccc(-c2noc(-c3ccncc3)n2)cc1OCC has EC50 strictly less than 3 µM
stdout: T

stdin: Consider the molecule CC(=N)C(C#N)C(=O)CSc1nc2cc(Cl)ccc2s1 (centres undefined) . Is its EC50 strictly less than 3 µM?
stdout: F

stdin: Would you kindly verify if EC50 of Nc1ccc(N2CCOCC2)c(Cl)c1 [(3-chloro-4-morpholino-phenyl)amine] is strictly less than 3 µM?
stdout: T
